Measured values drawn from patent US9932331B2 for this set.

Quick list: IC50 per entry.
Target: human NHE3 (Homo sapiens)
Sequence (P48764 26-834): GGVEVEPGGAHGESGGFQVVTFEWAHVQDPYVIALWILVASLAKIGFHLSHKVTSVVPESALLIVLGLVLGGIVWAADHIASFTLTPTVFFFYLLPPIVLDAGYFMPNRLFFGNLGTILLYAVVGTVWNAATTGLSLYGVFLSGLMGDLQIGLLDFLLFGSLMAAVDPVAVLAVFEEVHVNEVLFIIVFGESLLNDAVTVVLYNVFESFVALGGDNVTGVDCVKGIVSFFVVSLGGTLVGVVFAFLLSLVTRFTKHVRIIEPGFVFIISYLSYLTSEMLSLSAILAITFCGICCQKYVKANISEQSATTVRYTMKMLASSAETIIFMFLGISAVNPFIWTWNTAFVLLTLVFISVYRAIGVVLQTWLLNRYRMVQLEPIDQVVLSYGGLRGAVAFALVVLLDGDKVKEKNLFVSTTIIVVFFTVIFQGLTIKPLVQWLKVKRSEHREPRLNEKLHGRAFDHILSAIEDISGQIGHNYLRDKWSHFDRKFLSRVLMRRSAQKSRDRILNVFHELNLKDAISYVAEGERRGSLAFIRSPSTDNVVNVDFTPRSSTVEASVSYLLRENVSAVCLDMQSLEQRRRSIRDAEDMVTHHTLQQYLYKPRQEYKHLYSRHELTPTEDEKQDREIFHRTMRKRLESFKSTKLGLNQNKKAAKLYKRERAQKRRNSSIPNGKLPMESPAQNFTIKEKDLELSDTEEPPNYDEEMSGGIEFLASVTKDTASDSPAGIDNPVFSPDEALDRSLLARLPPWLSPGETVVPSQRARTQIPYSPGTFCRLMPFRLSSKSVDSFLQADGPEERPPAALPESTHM
Test: NHE3 inhibition test (recovery of intracellular pH in cell line stably expressing human NHE3)
Details: OK cells deficient in endogenous NHE stably expressing human NHE3; BCECF fluorescence, initial rate of pH recovery; read-out: human NHE3 inhibitory activity IC50
Counter-ions that a name gives are not always drawn.

These recorded examples may help you get a feel for the data.
Exercise: Any idea what IC50 came out for CN1Cc2c(Cl)cc(Cl)cc2[C@H](c2cccc(-c3cc(OCCOCCOCCNC(=O)Nc4ccc(NC(=O)NCCOCCOCCOc5cc(-c6cccc([C@@H]7CN(C)Cc8c(Cl)cc(Cl)cc87)c6)ncn5)cc4)ncn3)c2)C1 on human NHE3 (Homo sapiens)?
Solution: 33.5 nM

Exercise: Any idea what IC50 came out for CN1Cc2c(Cl)cc(Cl)cc2[C@H](c2cccc(-c3cn(C)cn3)c2)C1 on human NHE3 (Homo sapiens)?
Solution: 95.7 nM

Exercise: Any idea what IC50 came out for CN1Cc2c(Cl)cc(Cl)cc2[C@H](c2cccc(-c3cn(CCOCCOCCOCCNC(=O)NCCNC(=O)NCCOCCOCCOCCn4cc(-c5cccc([C@@H]6CN(C)Cc7c(Cl)cc(Cl)cc76)c5)nn4)nn3)c2)C1 on human NHE3 (Homo sapiens)?
Solution: 3.3 nM

Exercise: Any idea what IC50 came out for CN1Cc2c(Cl)cc(Cl)cc2C(c2cccc(-c3cnnc(NCCOCCOCCNC(=O)C(O)C(O)C(=O)NCCOCCOCCNc4cc(-c5cccc(C6CN(C)Cc7c(Cl)cc(Cl)cc76)c5)cnn4)c3)c2)C1 (stereo not shown) on human NHE3 (Homo sapiens)?
Solution: 9.1 nM

More entries:
Exercise: Any idea what IC50 came out for CN1Cc2c(Cl)cc(Cl)cc2[C@H](c2cccc(-c3ccc[nH]3)c2)C1 on human NHE3 (Homo sapiens)?
Solution: 1170 nM

Exercise: Any idea what IC50 came out for CN1Cc2c(Cl)cc(Cl)cc2[C@H](c2cccc(-c3cn(CCOCCOCCOCCNC(=O)NCCCNC(=O)NCCOCCOCCOCCn4cc(-c5cccc([C@@H]6CN(C)Cc7c(Cl)cc(Cl)cc76)c5)nn4)nn3)c2)C1 on human NHE3 (Homo sapiens)?
Solution: 4.4 nM

Exercise: Any idea what IC50 came out for CN1Cc2c(Cl)cc(Cl)cc2[C@H](c2cccc(-c3cccnc3)c2)C1 [Example 1-2, trifluoroacetate] on human NHE3 (Homo sapiens)?
Solution: 217 nM

Exercise: Any idea what IC50 came out for CN1Cc2c(Cl)cc(Cl)cc2[C@H](c2cccc(-c3cc(OCCOCCOCCOCCNC(=O)[C@H](O)[C@@H](O)C(=O)NCCOCCOCCOCCOc4cc(-c5cccc([C@@H]6CN(C)Cc7c(Cl)cc(Cl)cc76)c5)ncn4)ncn3)c2)C1 [Example 8-17, hydrochloride] on human NHE3 (Homo sapiens)?
Solution: 2.5 nM

Exercise: Any idea what IC50 came out for CN1Cc2c(Cl)cc(Cl)cc2[C@H](c2cccc(-c3ncco3)c2)C1 [Example 1-22, hydrochloride] on human NHE3 (Homo sapiens)?
Solution: 306 nM

Exercise: Any idea what IC50 came out for CN1Cc2c(Cl)cc(Cl)cc2[C@H](c2cccc(-c3cn(CCOCCOCCOCCOCCOCCNC(=O)Nc4ccc(NC(=O)NCCOCCOCCOCCOCCOCCn5cc(-c6cccc([C@@H]7CN(C)Cc8c(Cl)cc(Cl)cc87)c6)nn5)cc4)nn3)c2)C1 on human NHE3 (Homo sapiens)?
Solution: 10.9 nM
